- Test system: lymphocyte
- TEST: MTT cytotoxic assay
- Assay type: cell-based, mouse
- MEASUREMENT_CONDITIONS: 10^−8 M; control 0.337
# reported Cytotoxicity OD Value; entries follow
Please reply with the number alone, leaving off any unit.

These solved cases illustrate the format of a correct answer.
* CC(C)C12OC1C1OC13C1(OC1C(O)C1(O)C4=C(CCC13C)C(=O)OC4)C2O [LLDT-22, cis-(5R, 6S)-5,6-dihydroxytriptolide] | 0.374
* CC(C)[C@]12O[C@H]1[C@@H]1O[C@@]13[C@@]1(C)CCC4=C(COC4=O)[C@@]14O[C@H]4[C@@H]1O[C@@]13C2=O [LLDT-16, (5R, 6S)-5,6-epoxytriptonide] | 0.372
* CC(C)C12OC1C1OC13C1(C)CCC4=C(COC4=O)C1=CC1OC13C2O (stereo not shown) [LLDT-18, Δ^5,6-dehydrotriptolide] | 0.367

Now examine the next entry.
Would you mind telling me what Cytotoxicity OD Value value was observed for CC(C)C12OC1C1OC13C1(OC1C(O)C1(O)C4=C(CCC13C)C(=O)OC4)C2O (stereo not shown) [LLDT-23] ? 0.366

---

- Tested on: B lymphocyte
- TEST: LPS induced B-lymphocyte proliferation ([3H]thymidine)
- Assay type: cell-based, mouse
- MEASUREMENT_CONDITIONS: 60 h; read-out: ED50 for inhibiting B lymphocyte proliferation induced by LPS
QUANTITY_MEASURED: pEC50
Please keep in mind that pEC50 is minus log10 of the molar concentration; only the number is needed.

Form: Entry = CC(C)[C@]12O[C@H]1[C@@H]1O[C@]13[C@]1(O[C@H]1C[C@@]1(O)C4=C(CC[C@]31C)C(=O)OC4)[C@@H]2O [LLDT-8, (5R)-5-hydroxytriptolide] | System = B lymphocyte | pEC50 = ____ 6.80
